Origin of values: patent US9073916B2

assay: Pulse radiolysis (E(1) and fragmentation rate); assay type: physicochemical; details: determined against methylviologen
readout.name: E (1)/V (one-electron reduction potential) (V)

smiles.str: CC[N+](CC)(CCNC(=O)c1c(C)[nH]c(/C=C2\C(=O)Nc3ccc(F)cc32)c1C)Cc1c([N+](=O)[O-])ncn1C.O=C([O-])C(F)(F)F
recorded.result: −0.449
//
smiles.str: Cn1cnc([N+](=O)[O-])c1C[n+]1ccc(Nc2ncc3cc(-c4c(Cl)cccc4Cl)c(=O)n(C)c3n2)cc1.[Br-]
recorded.result: −0.471
//
smiles.str: C[N+](C)(C/C=C/C(=O)Nc1ccc2ncnc(Nc3cccc(Br)c3)c2c1)Cc1ccc([N+](=O)[O-])cc1
recorded.result: −0.408
//
smiles.str: Cn1cnc([N+](=O)[O-])c1C[N+]1(C/C=C/C(=O)Nc2ccc3ncnc(Nc4cccc(Br)c4)c3c2)CCCCC1.[Br-]
recorded.result: −0.427
//
smiles.str: Cn1cnc([N+](=O)[O-])c1C[N+]1(CCOc2ccc(Nc3ncc4cc(-c5c(Cl)cccc5Cl)c(=O)n(C)c4n3)cc2)CCCCC1.[Br-]
recorded.result: −0.465
//
smiles.str: Cn1cnc([N+](=O)[O-])c1C[N+](C)(C)C/C=C/C(=O)Nc1cc2c(Nc3ccc(F)c(Br)c3)ncnc2cn1
recorded.result: −0.425
//
smiles.str: CC[N+](CC)(CCOc1ccc(Nc2ncc3cc(-c4c(Cl)cccc4Cl)c(=O)n(C)c3n2)cc1)Cc1c([N+](=O)[O-])ncn1C.[Br-]
recorded.result: −0.429
//
smiles.str: CC[N+](CC)(CCNC(=O)c1c(C)[nH]c(/C=C2\C(=O)Nc3ccc(F)cc32)c1C)Cc1c([N+](=O)[O-])nc(C)n1C.[Br-]
recorded.result: −0.456

----------
test: physchem; conditions: aqueous buffer
readout.name: solubility (µM)
Only the number, expressed in µM, is required.

### Prompt What does the data say about its solubility? Entry: Cn1cnc([N+](=O)[O-])c1C[N+](C)(C)C/C=C/C(=O)Nc1cc2c(Nc3ccc(F)c(Br)c3)ncnc2cn1 [Compound 42]
### Response 129

### Prompt What does the data say about its solubility? Entry: Cn1cnc([N+](=O)[O-])c1C[N+](C)(C)C/C=C/C(=O)Nc1cc2c(Nc3ccc(F)c(C(F)(F)F)c3)ncnc2cn1 [Compound 50]
### Response 72

----------
system: SKOV3 cells; assay: Cellular growth inhibition (sulforhodamine B); type: cell-based, Human; conditions: Table 9
Listed next: entries and their corresponding SKOV3 HCR.
Only the number, expressed in fold, is required.

smiles.str: C#Cc1cccc(Nc2ncnc3cnc(NC(=O)/C=C/CN(C)C)cc23)c1
display.unit: fold
SKOV3 HCR: 0.8

smiles.str: C#Cc1cccc(Nc2ncnc3cnc(NC(=O)/C=C/C[N+](C)(C)Cc4c([N+](=O)[O-])ncn4C)cc23)c1
display.unit: fold
SKOV3 HCR: 38.5

### Prompt What does the data say about its SKOV3 HCR? Entry: Cn1cnc([N+](=O)[O-])c1C[N+](C)(C)C/C=C/C(=O)Nc1cc2c(Nc3ccc(F)c(Br)c3)ncnc2cn1
### Response 20.3

### Prompt What does the data say about its SKOV3 HCR? Entry: CN(C)C/C=C/C(=O)Nc1cc2c(Nc3ccc(F)c(Br)c3)ncnc2cn1
### Response 0.8

### Prompt What does the data say about its SKOV3 HCR? Entry: Cn1cnc([N+](=O)[O-])c1C[N+](C)(C)C/C=C/C(=O)Nc1cc2c(Nc3ccc(F)c(C(F)(F)F)c3)ncnc2cn1
### Response 28.7

### Prompt What does the data say about its SKOV3 HCR? Entry: CN(C)C/C=C/C(=O)Nc1cc2c(Nc3ccc(F)c(C(F)(F)F)c3)ncnc2cn1
### Response 0.7

----------
Listed next: entries and their corresponding solubility.
experiment: physchem; conditions: water

Previously resolved entries follow.
smiles.str: Cn1cnc([N+](=O)[O-])c1C[N+](C)(C)C/C=C/C(=O)Nc1cc2c(Nc3ccc(F)c(Br)c3)ncnc2cn1
readout.name: solubility
recorded.result: > 1160 µM
//
smiles.str: C#Cc1cccc(Nc2ncnc3cnc(NC(=O)/C=C/C[N+](C)(C)Cc4c([N+](=O)[O-])ncn4C)cc23)c1
readout.name: solubility
recorded.result: > 1280 µM

Please turn your attention to the following entry.
### Prompt What does the data say about its solubility? Entry: Cn1cnc([N+](=O)[O-])c1C[N+](C)(C)C/C=C/C(=O)Nc1cc2c(Nc3ccc(F)c(C(F)(F)F)c3)ncnc2cn1
### Response > 1300 µM

----------
Biological target: erbB4 (Homo sapiens)
Sequence (Q15303 26-1308): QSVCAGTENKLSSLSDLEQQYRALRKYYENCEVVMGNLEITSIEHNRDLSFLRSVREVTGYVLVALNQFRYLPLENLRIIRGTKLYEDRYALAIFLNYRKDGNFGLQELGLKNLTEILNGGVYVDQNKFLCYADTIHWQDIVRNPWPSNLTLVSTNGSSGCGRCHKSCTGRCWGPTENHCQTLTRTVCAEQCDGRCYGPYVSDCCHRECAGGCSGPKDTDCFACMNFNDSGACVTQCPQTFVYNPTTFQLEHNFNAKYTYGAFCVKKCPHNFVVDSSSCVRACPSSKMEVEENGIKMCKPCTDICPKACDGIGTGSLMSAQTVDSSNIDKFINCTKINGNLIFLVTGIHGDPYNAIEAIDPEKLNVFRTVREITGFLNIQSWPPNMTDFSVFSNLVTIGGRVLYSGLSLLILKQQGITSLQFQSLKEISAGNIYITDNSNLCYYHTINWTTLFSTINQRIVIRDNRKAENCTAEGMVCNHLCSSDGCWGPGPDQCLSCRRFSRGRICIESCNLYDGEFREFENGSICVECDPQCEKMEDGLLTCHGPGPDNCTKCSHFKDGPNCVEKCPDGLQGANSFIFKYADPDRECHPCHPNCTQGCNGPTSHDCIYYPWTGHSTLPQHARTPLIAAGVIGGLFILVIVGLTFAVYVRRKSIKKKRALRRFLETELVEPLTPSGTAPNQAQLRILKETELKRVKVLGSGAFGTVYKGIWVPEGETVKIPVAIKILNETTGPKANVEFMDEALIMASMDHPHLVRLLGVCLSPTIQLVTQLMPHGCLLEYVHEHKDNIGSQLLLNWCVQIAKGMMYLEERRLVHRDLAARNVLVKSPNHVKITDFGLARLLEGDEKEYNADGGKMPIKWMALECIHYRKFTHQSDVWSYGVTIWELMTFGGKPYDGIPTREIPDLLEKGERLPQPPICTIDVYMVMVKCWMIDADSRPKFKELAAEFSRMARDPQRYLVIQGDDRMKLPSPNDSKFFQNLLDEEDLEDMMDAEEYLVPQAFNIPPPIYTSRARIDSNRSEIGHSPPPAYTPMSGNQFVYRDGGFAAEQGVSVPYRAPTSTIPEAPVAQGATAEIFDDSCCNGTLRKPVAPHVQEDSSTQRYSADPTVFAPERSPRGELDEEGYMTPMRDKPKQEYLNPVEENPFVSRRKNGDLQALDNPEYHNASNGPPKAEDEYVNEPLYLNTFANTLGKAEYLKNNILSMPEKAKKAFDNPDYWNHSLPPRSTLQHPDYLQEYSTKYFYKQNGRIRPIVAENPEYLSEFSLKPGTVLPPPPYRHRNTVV
Test: Isolated enzyme inhibition (Invitrogen Z′-LYTE kinase assay)
Conditions: 10 μM ATP, duplicate
Description: The compounds of Table 1 were tested for their ability to inhibit erbB1, erbB1^T790M, erbB2 and erbB4 in an isolated enzyme assay. This assay utilises synthetic FRET-capable peptide substrates. Phosphorylation of these substrates protects them from cleavage by a development reagent, leaving their FRET-capabilities intact. […] As a further consideration, for compounds capable of irreversible inhibition of an enzyme, the IC50 reflects both reversible and irreversible binding to the enzyme.
readout.name: IC50 (µM)

Previously resolved entries follow.
compound: CN(C)C/C=C/C(=O)Nc1ccc2ncnc(Nc3cccc(Br)c3)c2c1 [Compound 11, reference compound]
IC50 [µM]: 0.0027
//
compound: Cn1c(C[N+](C)(C)C/C=C/C(=O)Nc2ccc3ncnc(Nc4cccc(Br)c4)c3c2)ccc1[N+](=O)[O-].[Br-] [Compound 19]
IC50 [µM]: 0.061
//
compound: Cn1cc([N+](=O)[O-])nc1C[N+](C)(C)C/C=C/C(=O)Nc1ccc2ncnc(Nc3cccc(Br)c3)c2c1 [Compound 21]
IC50 [µM]: 0.076

(I) Cn1cnc([N+](=O)[O-])c1C[N+](C)(C)CCCC(=O)Nc1ccc2ncnc(Nc3cccc(Br)c3)c2c1 [Compound 27]
(II) CN(C)CCCC(=O)Nc1ccc2ncnc(Nc3cccc(Br)c3)c2c1 [Compound 16]
### Prompt Of I and II , whose reported IC50 is numerically smaller? Write down the label attached to your selection.
### Response II
(II: 0.113 µM, I: 0.174 µM)

----------
Structures can show the parent of a compound that is named as a salt.
readout.name: melting point

Previously resolved entries follow.
molecule: Cn1cnc([N+](=O)[O-])c1C[N+]1(C/C=C/C(=O)Nc2ccc3ncnc(Nc4cccc(Br)c4)c3c2)CCCCC1.[Br-]
melting point: 188 °C (dec.)

molecule: Cn1cnc([N+](=O)[O-])c1C[N+](C)(C)CCCC(=O)Nc1ccc2ncnc(Nc3cccc(Br)c3)c2c1 (as salt: bromide)
melting point: 177 °C (dec.)

### Prompt What does the data say about its melting point? Entry: Cn1cnc([N+](=O)[O-])c1C[n+]1ccc(Nc2ncc3cc(-c4c(Cl)cccc4Cl)c(=O)n(C)c3n2)cc1.[Br-]
### Response 252 °C (dec.)

----------
test: Steady state radiolytic reduction by the CO2.− radical with HPLC-MS; format: physicochemical; conditions: HPLC-MS at 0.95 reducing equivalents
readout.name: % Loss of prodrug (%)

(P) CC[N+](CC)(CCNC(=O)c1c(C)[nH]c(/C=C2\C(=O)Nc3ccc(F)cc32)c1C)Cc1c([N+](=O)[O-])nc(C)n1C.[Br-]
(Q) Cn1cnc([N+](=O)[O-])c1C[n+]1ccc(Nc2ncc3cc(-c4c(Cl)cccc4Cl)c(=O)n(C)c3n2)cc1.[Br-]
### Prompt Of P and Q , whose reported % Loss of prodrug is numerically smaller? Write down the label attached to your selection.
### Response Q
(Q: 8%, P: 87%)

(A) Cn1cnc([N+](=O)[O-])c1C[N+]1(CCOc2ccc(Nc3ncc4cc(-c5c(Cl)cccc5Cl)c(=O)n(C)c4n3)cc2)CCCCC1.[Br-]
(B) C[N+](C)(C/C=C/C(=O)Nc1ccc2ncnc(Nc3cccc(Br)c3)c2c1)Cc1ccc([N+](=O)[O-])cc1
### Prompt Larger number for % Loss of prodrug: A , or B ? Write down the label attached to your selection.
### Response A

(P) CC[N+](CC)(CCNC(=O)c1c(C)[nH]c(/C=C2\C(=O)Nc3ccc(F)cc32)c1C)Cc1c([N+](=O)[O-])ncn1C.O=C([O-])C(F)(F)F
(Q) C[N+](C)(C/C=C/C(=O)Nc1ccc2ncnc(Nc3cccc(Br)c3)c2c1)Cc1ccccc1[N+](=O)[O-]
### Prompt Larger number for % Loss of prodrug: P , or Q ? Write down the label attached to your selection.
### Response P

(a) CC[N+](CC)(CCOc1ccc(Nc2ncc3cc(-c4c(Cl)cccc4Cl)c(=O)n(C)c3n2)cc1)Cc1c([N+](=O)[O-])nc(C)n1C.[Br-]
(b) Cn1ncc([N+](=O)[O-])c1C[N+](C)(C)C/C=C/C(=O)Nc1ccc2ncnc(Nc3cccc(Br)c3)c2c1
### Prompt Of a and b , whose reported % Loss of prodrug is numerically smaller? Write down the label attached to your selection.
### Response b
